Target under test: cyclin E/CDK2 enzyme (Homo sapiens)
Construct: made in house; host or cells: Sf9 insect cells, recombinant baculovirus
Protocol description: CDK2 ELISA kinase assay (phospho-Rb ser 795 detection)
Assay type: biochemical
Condition info: In Vitro Enzyme Assay, cyclin E/CDK2, read-out: CDK2 IC50
Listing of entries alongside the reported IC50.
Outcome measure: IC50 (µM)

>>> reported("O=C1NC(=O)c2ccc(-c3ccco3)cc2C1=CNCc1ccc(O)c(O)c1")
4.1
>>> reported("COc1ccc(CNC=C2C(=O)NC(=O)c3ccc(-c4ccc5[nH]ccc5c4)cc32)cc1O")
40.6
>>> reported("CC(C)(C)c1ccc2c(c1)/C(=C/NCc1cc(O)c(-c3ccccc3)cn1)C(=O)NC2=O")
2.6
>>> reported("O=C1NC(=O)c2ccc(-c3ccc4c(c3)OCO4)cc2C1=CNCc1ccc(O)c(O)c1")
28.3
>>> reported("O=C1NC(=O)c2ccc(-c3cccc4cccnc34)cc2C1=CNCc1ccc(O)c(O)c1")
28.3

* * *

Tested on: MCF-7
Protocol description: Cytotoxicity assay (SRB), MCF-7
Type: cell-based
Condition info: Homo sapiens, MCF7, 72 h, MCF-7 cells, 3 days, SRB; read-out: In Vitro Cellular Activity IC50 MCF-7
pIC50: −log10 of the molar value.
Rule: pIC50 under 5 gives Criterion not met, otherwise Criterion met.

>>> assigned_label("N#Cc1ccc(-c2ccc3c(c2)C(=CNc2ccc(CN4CCCC4)cc2)C(=O)NC3=O)cc1 [Example 839]")
"Criterion not met"
>>> assigned_label("Cc1cccc(-c2ccc3c(c2)C(=CNCc2ccc(O)c(O)c2)C(=O)NC3=O)c1 [Example 782]")
"Criterion not met"
>>> assigned_label("CN1CCN(c2ccc(N/C=C3\\C(=O)NC(C)(C)c4ccc(Br)cc43)cc2)CC1 [Example 452]")
"Criterion met"
>>> assigned_label("O=C1NC(=O)c2ccc(I)cc2/C1=C/NCc1cc(O)c(-c2ccoc2)cc1F [Example 520]")
"Criterion met"
>>> assigned_label("COc1ccc(-c2ccc3c(c2)C(=CNc2ccc(CC#N)cc2)C(=O)NC3=O)cc1 [Example 701]")
"Criterion not met"
>>> assigned_label("NS(=O)(=O)c1ccc(CNC=C2C(=O)NC(=O)c3ccc(-c4ccc5[nH]ccc5c4)cc32)cc1 [Example 637]")
"Criterion not met"
>>> assigned_label("CCCOc1cnc(CN/C=C2\\C(=O)NC(=O)c3ccc(-c4ccco4)cc32)cc1O [Example 502]")
"Criterion met"
>>> assigned_label("CN1CCN(c2ccc(NC=C3C(=O)NC(=O)c4ccc(C=Cc5ccc(N)cc5)cc43)cc2)CC1 [Example 725]")
"Criterion not met"
>>> assigned_label("N#CCc1ccc(C=Cc2ccc3c(c2)C(=CNCc2ccc(O)c(O)c2)C(=O)NC3=O)cc1 [Example 805]")
"Criterion not met"
>>> assigned_label("NS(=O)(=O)c1ccc(CNC=C2C(=O)NC(=O)c3ccc(-c4cccc(F)c4)cc32)cc1 [Example 739]")
"Criterion not met"
>>> assigned_label("CCCOc1cnc(CN/C=C2\\C(=O)NC(=O)c3ccc(C4CCCC4)cc32)cc1O [Example 538]")
"Criterion met"
>>> assigned_label("C=CCN1CCCC1c1ccc(N/C=C2\\C(=O)NC(=O)c3ccc(-c4ccsc4)cc32)cc1 (stereo not drawn) [Example 420]")
"Criterion not met"
